experimental_details: Toxicity liver stage against HepG2, at 10uM
Assay type: cell-based
Parameters: test concentration 10 uM, cell line HepG2-A16-CD81EGFP
test_context: human, HepG2-A16-CD81EGFP cells; read-out: INHIBITION
parameter_measured: cytotoxicity at 10 µM (%)
Give the quantity in %, number only.

Would you please look over these solved cases?
| molecule | cytotoxicity at 10 µM, % |
| --- | --- |
| O=C(Cc1ccc2c(c1)CCO2)N1CCN(c2nccs2)CC1 | -10.7 |
| Cc1ocnc1C(=O)N(C)[C@@H]1CC[C@@H](Oc2ccccc2)[C@@H]1O | -0.658 |
| Cc1cc(C)c(CNc2ncnc3ccccc23)c(=O)[nH]1 | 17.6 |
| CN1CCC(c2cncc(N(C)C)n2)CC1 | -11.5 |
| Cc1cc(C)cc(C(C)NC(=O)c2ccc(CS(C)(=O)=O)o2)c1 (configuration not stated) | 2.49 |
| Cn1ncc2c1CCCC2NCc1cccc(F)c1 (configuration not stated) | -15.6 |
| CCc1ccc(Cn2nccc2NC(=O)C2CCS(=O)(=O)C2)cc1 (configuration not stated) | -1.32 |
| Cc1noc(C(C)NC(=O)[C@@H](C)NC(=O)OC(C)(C)C)n1 (some centres not stated) | 5.81 |

Fill in: cytotoxicity at 10 µM of CN(C)C(=O)C1(C)CN(Cc2cn(C)c3ccc(F)cc23)CCO1 (configuration not stated) is ___
4.57

Same for OC1(CNc2ccc(Br)cn2)CCC1
6.59

Likewise for O=C(N[C@@H]1CN(Cc2ccsc2)[C@@H]2CCCO[C@@H]21)C1CC1 ?
-5.47

Same question for CN(Cc1ccco1)C(=O)CN1CCc2ccccc2C1 please.
-2.19

* * *

Quick list: cytotoxicity at 10 µM per entry.
experimental_details: Toxicity liver stage against HepG2, at 10uM
Type: cell-based
Parameters: test concentration 10 uM, cell line HepG2-A16-CD81EGFP
test_context: human, HepG2-A16-CD81EGFP cells; read-out: INHIBITION
State just the number; it will be interpreted in %.

Given the compound CCn1nc(C)c(CN(CCCOC)Cc2ccccn2)c1C , what is its reported cytotoxicity at 10 µM?
5.23

Same for CCOc1cccc2c1OCC(=O)N(c1ccc3c(c1)OCCO3)C2
13.1

# repeat for O=C(Nc1nncs1)N1CCC(CCc2ccc(O)cc2)CC1
6.81

* * *

Overview of reported cytotoxicity at 10 µM across a group of compounds:
experimental_details: Toxicity liver stage against HepG2, at 10uM
Type: cell-based
Design: test concentration 10 uM, cell line HepG2-A16-CD81EGFP
test_context: human, HepG2-A16-CD81EGFP cells; read-out: INHIBITION
Answer with a number only, understood to be in %.

| compound | unit_tag | cytotoxicity at 10 µM |
| --- | --- | --- |
| COc1ccc(CNC(=O)NC2CCC(O)CC2)c(C(F)(F)F)c1 (stereo unspecified) | % | -12 |
| Cc1cccc(CN2C[C@@H](NC(=O)C3CCC3)[C@H]3COC[C@H]32)n1 | % | 4.83 |
| Cc1cc(N2CCCC(c3nncn3C3CC3)C2)ncn1 (stereo unspecified) | % | -6.48 |

Recorded cytotoxicity at 10 µM of CC1CN(C)CCN1Cc1cccc(C(=O)N(C)C)c1 (stereo unspecified) , please.
-0.192

Repeat for the following compound: CSc1[nH]c(=O)c(C(=O)N2CCCC2c2cccs2)cc1C#N (stereo unspecified)
-3.49

Moving on to the next compound: CS(=O)(=O)c1ccccc1NC(=O)N[C@@H]1c2ccccc2C[C@@H]1O
-42.2

Could you do the same for Cc1ccccc1CN(C)C(=O)CN1CCOC(Cn2cccn2)C1 (stereo unspecified) , please?
-5.1

Moving on to the next compound: CC(CO)NC(=O)c1ccc(NCc2cc(C#N)ccc2F)cc1 (stereo unspecified)
1.98

Now give it for CN(CCCc1cnn(C)c1)C(=O)Nc1cccc2[nH]nnc12 too.
-3.98

Next record, please: CCc1nc(C2CCCN2C(=O)c2cc(Cl)c[nH]2)no1 (stereo unspecified)
-12.2

Now the same for Cc1ncsc1CN1CCO[C@H]2[C@H](Oc3ccccn3)CC[C@@H]21
-0.762

* * *

Parameter cytotoxicity at 10 µM: see the listing below.
experimental_details: Toxicity liver stage against HepG2, at 10uM
Assay type: cell-based
Set-up: test concentration 10 uM, cell line HepG2-A16-CD81EGFP
test_context: human, HepG2-A16-CD81EGFP cells; read-out: INHIBITION
Could you give me the number in %? Just the number is fine.

Consider the reported cytotoxicity at 10 µM for these compounds:
| compound | unit_tag | cytotoxicity at 10 µM |
| --- | --- | --- |
| Cc1cnn(CC2CCN(CC(O)COc3ccc(F)cc3)CC2)c1 (stereo unspecified) | % | -10.9 |
| O=C1CCSCC(C(=O)NCc2nc(-c3ccccc3)no2)N1 (stereo unspecified) | % | -4.66 |
| O=C1[C@@H]2CCN(Cc3ccoc3)C[C@@H]2OCCN1c1ccccc1 | % | -0.928 |
| CCC(O)(CNCc1cc[nH]n1)c1ccc(Br)cc1 (stereo unspecified) | % | 2.69 |
| CCn1cc(S(=O)(=O)NC(CO)Cc2c[nH]c3ccccc23)cn1 (stereo unspecified) | % | 10.8 |

# query: cytotoxicity at 10 µM of entry CCC1CN(C)c2ccccc2CN1CCn1cncn1 (stereo unspecified)
9.4

Next compound: CC(C)C[C@H](N)COc1cccc(F)c1Oc1ccccc1
-5.08

Another compound to look at: Cc1cccc(CN2CC[C@H]3OCC[C@@]3(C(=O)N3CCCO3)C2)n1
0.886

Thanks! And O=C(CCc1ccccc1)N1CCCC(c2n[nH]c3nccnc23)C1 (stereo unspecified) ?
20.9

Another compound: O=C(CCc1nc(C2CC2)no1)c1ccc2c(c1)OCCO2
-7.04

Another compound to check: Cc1nc(-c2ccccc2)n(CC(=O)NC2CCCC2)n1
-0.248

* * *

experimental_details: Toxicity liver stage against HepG2, at 10uM
Assay type: cell-based
Parameters: test concentration 10 uM, cell line HepG2-A16-CD81EGFP
test_context: human, HepG2-A16-CD81EGFP cells; read-out: INHIBITION
Recorded cytotoxicity at 10 µM values for a group of molecules are listed next.
Express it in %; write the number only.

Examples from the recorded data:
| molecule | cytotoxicity at 10 µM / % |
| --- | --- |
| O=C(c1ccnc(NC2CC2)c1)N1CCCC1c1cccc(Br)c1 (stereo unspecified) | -6.58 |
| Cc1nn(C)c(C)c1S(=O)(=O)NCCn1ccc(-c2cccs2)n1 | -3.53 |
| CCCn1nc(C)c(-c2cncn2CC2(N(C)C)CCC(C)CC2)c1C (stereo unspecified) | 9.35 |
| Cc1nnc(NCC2(c3ccccc3)CC2)c(C#N)c1C | 3.51 |
| CCCc1ccc(CN2CCC3(CCC(=O)N(C(C)C(=O)O)C3)CC2)o1 (stereo unspecified) | -2.69 |
| Cn1nnc2c1C(COCC1CC1)CN(C(=O)Cc1cccs1)C2 (stereo unspecified) | 3.88 |
| CCN(C)C(=O)c1ccc2c(c1)C(c1nc[nH]n1)CN2S(C)(=O)=O (stereo unspecified) | -137 |
| COc1ccc(NC(=O)CCNc2ncccn2)cn1 | -48.4 |
| Cc1cc(-c2cnc(NCc3ccncc3)nc2C(C)C)on1 | 59.7 |
| CC(C)CC(=O)NS(=O)(=O)c1ccc(C#N)cc1C(F)(F)F | -8.64 |

# ---- query molecule ----
# get_value(readout='cytotoxicity at 10 µM', item= O=C(c1ccncc1)N1CCCN(Cc2nnc(C3CC3)o2)CC1 )
1.91

* * *

experimental_details: Toxicity liver stage against HepG2, at 10uM
Assay type: cell-based
Parameters: test concentration 10 uM, cell line HepG2-A16-CD81EGFP
test_context: human, HepG2-A16-CD81EGFP cells; read-out: INHIBITION
parameter_measured: cytotoxicity at 10 µM (%)
Give your result in % as a bare value.

Before answering, review these 5 worked examples.
| compound | unit_tag | cytotoxicity at 10 µM |
| --- | --- | --- |
| Cc1noc(C)c1CN1CCOCC12CCN(c1nccs1)CC2 | % | -104 |
| Cn1cnnc1S(=O)(=O)Cc1cc(Cl)c2c(c1)OCCO2 | % | -44.7 |
| Cc1nc2[nH]cc(C(=O)N3CCCCC3c3ccc(F)cc3)c(=O)n2n1 (stereo unspecified) | % | 3.63 |
| Cn1ccnc1CN1CCC(F)(F)C2(CCN(c3cnccn3)C2)C1 (stereo unspecified) | % | 16.4 |
| Cc1nc(N(C)C)ncc1C(=O)NCCc1csc(-c2cnccn2)n1 | % | -5 |

// next entry
What cytotoxicity at 10 µM value was documented for this compound, Cc1cccc(C2(C(=O)NCC3CN(C)CCO3)CC2)c1 (stereo unspecified) ?
-7.45
